Below is a list of entries, each paired with its recorded pIC50 value.
system: L540cy HL; experiment: In vitro cytotoxicity, cell proliferation assay (CellTiter-Glo, 96 h); format: cell-based; conditions: auristatin free drug
pIC50: −log10 of the molar value. *1 amine or outer side, *2 acyl side, *3 side chain or, on linkers, in order; H or OH if unused. Where a SMILES comes first, the peptide text is derived from it. [ ]: non-standard residue; d: D form. The star is where a group is joined. Dolaproine = CO[C@@H]([C@@H]1CCCN1)[C@@H](C)C(=O)O; Dil = CC[C@H](C)[C@H](NC)[C@@H](CC(=O)O)OC; X11 = C[S+]([O-])NC[C@H](N[*:1])C(=O)[*:2]; X1 = C[C@@H](N*)[C@@H](O)c1ccccc1; Phe(ol) = N[C@H](CO)Cc1ccccc1; NMeS = CN[C@@H](CO)C(=O)O; dNMeS = CN[C@H](CO)C(=O)O; Dap = NC[C@H](N)C(=O)O; Glycolyl = O=C(CO)*
experimental.endpoint: pIC50

molecule	relational.operator	data.value
CC[C@H](C)[C@@H]([C@@H](CC(=O)N1CCC[C@H]1[C@H](OC)[C@@H](C)C(=O)N[C@H](CO)Cc1ccccc1)OC)N(C)C(=O)[C@@H](NC(=O)[C@H](CO)NC)C(C)C [Example 12] (H-[NMeS]V[Dil][Dolaproine][Phe(ol)])	=	8.32
CC[C@H](C)[C@@H]([C@@H](CC(=O)N1CCC[C@H]1[C@H](OC)[C@@H](C)C(=O)N[C@H](C)[C@@H](O)c1ccccc1)OC)N(C)C(=O)[C@@H](NC(=O)[C@H](N)CO)C(C)C [Example 26] (H-[dS]V[Dil][Dolaproine]-X1)	=	7.70
CC[C@H](C)[C@@H]([C@@H](CC(=O)N1CCC[C@H]1[C@H](OC)[C@@H](C)C(=O)N[C@H](C)[C@@H](O)c1ccccc1)OC)N(C)C(=O)[C@@H](NC(=O)[C@H]([C@@H](C)O)N(C)C)C(C)C [Example 10]	=	8.52
CC[C@H](C)[C@@H]([C@@H](CC(=O)N1CCC[C@H]1[C@H](OC)[C@@H](C)C(=O)N[C@H](CO)Cc1ccccc1)OC)N(C)C(=O)[C@@H](NC(=O)[C@@H](N)CO)C(C)C [Example 23] (H-SV[Dil][Dolaproine][Phe(ol)])	=	6.18
CC[C@H](C)[C@@H]([C@@H](CC(=O)N1CCC[C@H]1[C@H](OC)[C@@H](C)C(=O)N[C@H](C)[C@@H](O)c1ccccc1)OC)N(C)C(=O)[C@@H](NC(=O)[C@H](N)[C@H](C)O)C(C)C [Example 27] (H-[dT]V[Dil][Dolaproine]-X1)	=	7.89
CC[C@H](C)[C@@H]([C@@H](CC(=O)N1CCC[C@H]1[C@H](OC)[C@@H](C)C(=O)N[C@H](CO)Cc1ccccc1)OC)N(C)C(=O)[C@@H](NC(=O)[C@@H](CO)NC)C(C)C [Example 14] (H-[dNMeS]V[Dil][Dolaproine][Phe(ol)])	=	8.00
CC[C@H](C)[C@@H]([C@@H](CC(=O)N1CCC[C@H]1[C@H](OC)[C@@H](C)C(=O)N[C@H](CO)Cc1ccccc1)OC)N(C)C(=O)[C@@H](NC(=O)[C@@H](N)CNC(=O)CO)C(C)C [Example 51] (H-[Dap](Glycolyl)V[Dil][Dolaproine][Phe(ol)])	<	6.00
CC[C@H](C)[C@@H]([C@@H](CC(=O)N1CCC[C@H]1[C@H](OC)[C@@H](C)C(=O)N[C@H](CO)Cc1ccccc1)OC)N(C)C(=O)[C@@H](NC(=O)[C@@H](N)CN[S+](C)[O-])C(C)C (some centres unmarked) [Example 48] (H-[X11]V[Dil][Dolaproine][Phe(ol)])	<	6.00

----------
assay: LogD, miniaturized 1-octanol/pH 7.4 buffer shake flask method, LC/MS/MS; type: physicochemical
Where a SMILES comes first, the peptide text is derived from it. [ ]: non-standard residue; d: D form. The star is where a group is joined. Dolaproine = CO[C@@H]([C@@H]1CCCN1)[C@@H](C)C(=O)O; Dil = CC[C@H](C)[C@H](NC)[C@@H](CC(=O)O)OC; Val(3-OH) = CC(C)(O)[C@H](N)C(=O)O; Doe = c1ccc(C[C@H](N*)c2nccs2)cc1; X1 = C[C@@H](N*)[C@@H](O)c1ccccc1; Phe(ol) = N[C@H](CO)Cc1ccccc1; NMeS = CN[C@@H](CO)C(=O)O; dNMeS = CN[C@H](CO)C(=O)O

molecule	logD
CC[C@H](C)[C@@H]([C@@H](CC(=O)N1CCC[C@H]1[C@H](OC)[C@@H](C)C(=O)N[C@H](CO)Cc1ccccc1)OC)N(C)C(=O)[C@@H](NC(=O)[C@H](CO)NC)C(C)C [Example 12] (H-[NMeS]V[Dil][Dolaproine][Phe(ol)])	1.2
CC[C@H](C)[C@@H]([C@@H](CC(=O)N1CCC[C@H]1[C@H](OC)[C@@H](C)C(=O)N[C@H](CO)Cc1ccccc1)OC)N(C)C(=O)[C@@H](NC(=O)[C@@H](CO)NC)C(C)C [Example 14] (H-[dNMeS]V[Dil][Dolaproine][Phe(ol)])	1.1
CC[C@H](C)[C@@H]([C@@H](CC(=O)N1CCC[C@H]1[C@H](OC)[C@@H](C)C(=O)N[C@@H](Cc1ccccc1)c1nccs1)OC)N(C)C(=O)[C@@H](NC(=O)[C@H](CO)NC)[C@@H](C)CC [Example 20] (H-[NMeS]I[Dil][Dolaproine]-Doe)	1.9
CC[C@H](C)[C@@H]([C@@H](CC(=O)N1CCC[C@H]1[C@H](OC)[C@@H](C)C(=O)N[C@H](C)[C@@H](O)c1ccccc1)OC)N(C)C(=O)[C@@H](NC(=O)[C@@H](N)C(C)(C)O)C(C)C [Example 28] (H-[Val(3-OH)]V[Dil][Dolaproine]-X1)	2

----------
System: Karpas299 NHL
Experiment: In vitro cytotoxicity, cell proliferation assay (CellTiter-Glo, 96 h)
Format: cell-based
Details: Homo sapiens, KARPAS-299, auristatin free drug
Procedure: The cytotoxicity of free drugs and drug conjugates were measured by a cell proliferation assay employing the protocol described in Promega Corp. Technical Bulletin TB288; and Mendoza et al., 2002, Cancer Res. 62:5485-5488), the methods of which are specifically incorporated by reference herein. […] The contents are mixed for 2 minutes on an orbital shaker to induce cell lysis and the plate is incubated at room temperature for 10 minutes to stabilize the luminescence signal for recordation.
*1 amine or outer side, *2 acyl side, *3 side chain or, on linkers, in order; H or OH if unused. Where a SMILES comes first, the peptide text is derived from it. [ ]: non-standard residue; d: D form. The star is where a group is joined. Dolaproine = CO[C@@H]([C@@H]1CCCN1)[C@@H](C)C(=O)O; Dil = CC[C@H](C)[C@H](NC)[C@@H](CC(=O)O)OC; X11 = C[S+]([O-])NC[C@H](N[*:1])C(=O)[*:2]; X9 = CCN([C@@H](CO)C(=O)[*:2])[*:1]; Val(3-OH) = CC(C)(O)[C@H](N)C(=O)O; Doe = c1ccc(C[C@H](N*)c2nccs2)cc1; X1 = C[C@@H](N*)[C@@H](O)c1ccccc1; Hyp = O=C(O)[C@@H]1C[C@@H](O)CN1; Phe(ol) = N[C@H](CO)Cc1ccccc1; NHPhenethyl = c1ccc(CCN*)cc1; X8 = CN1C(=O)OC[C@H]1C(=O)*; NMeS = CN[C@@H](CO)C(=O)O; dNMeS = CN[C@H](CO)C(=O)O; hSer = N[C@@H](CCO)C(=O)O; Dap = NC[C@H](N)C(=O)O; Glycolyl = O=C(CO)*
Below is a list of entries, each paired with its recorded IC50 value.

compound	target.of.assay	unit.info	IC50
CC[C@H](C)[C@@H]([C@@H](CC(=O)N1CCC[C@H]1[C@H](OC)[C@@H](C)C(=O)N[C@H](CO)Cc1ccccc1)OC)N(C)C(=O)[C@@H](NC(=O)[C@@H]1COC(=O)N1C)C(C)C [Example 36] (X8-V[Dil][Dolaproine][Phe(ol)])	Karpas299 NHL	nM	27
CC[C@H](C)[C@@H]([C@@H](CC(=O)N1CCC[C@H]1[C@H](OC)[C@@H](C)C(=O)NCCc1ccccc1)OC)N(C)C(=O)[C@@H](NC(=O)[C@H](CO)NC)C(C)C [Example 18] (H-[NMeS]V[Dil][Dolaproine]-NHPhenethyl)	Karpas299 NHL	nM	2.3
CCN[C@@H](CO)C(=O)N[C@H](C(=O)N(C)[C@@H]([C@@H](C)CC)[C@@H](CC(=O)N1CCC[C@H]1[C@H](OC)[C@@H](C)C(=O)N[C@H](CO)Cc1ccccc1)OC)C(C)C [Example 15] (H-[X9]V[Dil][Dolaproine][Phe(ol)])	Karpas299 NHL	nM	2.3
CC[C@H](C)[C@@H]([C@@H](CC(=O)N1CCC[C@H]1[C@H](OC)[C@@H](C)C(=O)N[C@H](CO)Cc1ccccc1)OC)N(C)C(=O)[C@@H](NC(=O)[C@@H](N)C(C)(C)O)C(C)C [Example 29] (H-[Val(3-OH)]V[Dil][Dolaproine][Phe(ol)])	Karpas299 NHL	nM	13.7
CC[C@H](C)[C@@H]([C@@H](CC(=O)N1CCC[C@H]1[C@H](OC)[C@@H](C)C(=O)N[C@H](CO)Cc1ccccc1)OC)N(C)C(=O)[C@@H](NC(=O)[C@@H](N)CNC(=O)CO)C(C)C [Example 51] (H-[Dap](Glycolyl)V[Dil][Dolaproine][Phe(ol)])	Karpas299 NHL	nM	224
CC[C@H](C)[C@@H]([C@@H](CC(=O)N1CCC[C@H]1[C@H](OC)[C@@H](C)C(=O)N[C@H](CO)Cc1ccccc1)OC)N(C)C(=O)[C@@H](NC(=O)[C@@H](CO)NC)C(C)C [Example 14] (H-[dNMeS]V[Dil][Dolaproine][Phe(ol)])	Karpas299 NHL	nM	7.4
CC[C@H](C)[C@@H]([C@@H](CC(=O)N1CCC[C@H]1[C@H](OC)[C@@H](C)C(=O)N[C@H](CO)Cc1ccccc1)OC)N(C)C(=O)[C@@H](NC(=O)[C@@H](N)CN[S+](C)[O-])C(C)C (stereo partly drawn) [Example 48] (H-[X11]V[Dil][Dolaproine][Phe(ol)])	Karpas299 NHL	nM	110
CC[C@H](C)[C@@H]([C@@H](CC(=O)N1CCC[C@H]1[C@H](OC)[C@@H](C)C(=O)NC(Cc1ccccc1)c1cccs1)OC)N(C)C(=O)[C@@H](NC(=O)[C@H](CO)N(C)C)C(C)C (stereo partly drawn)	Karpas299 NHL	nM	1
CC[C@H](C)[C@@H]([C@@H](CC(=O)N1CCC[C@H]1[C@H](OC)[C@@H](C)C(=O)N[C@H](C)[C@@H](O)c1ccccc1)OC)N(C)C(=O)[C@@H](NC(=O)[C@H](N)[C@H](C)O)C(C)C [Example 27] (H-[dT]V[Dil][Dolaproine]-X1)	Karpas299 NHL	nM	2.3
CC[C@H](C)[C@@H]([C@@H](CC(=O)N1CCC[C@H]1[C@H](OC)[C@@H](C)C(=O)N[C@@H](Cc1ccccc1)C(=O)O)OC)N(C)C(=O)[C@@H](NC(=O)[C@H](CO)NC)C(C)C [Comparative Example A, reference compound] (H-[NMeS]V[Dil][Dolaproine]F-OH)	Karpas299 NHL	nM	253
CC[C@H](C)[C@@H]([C@@H](CC(=O)N1CCC[C@H]1[C@H](OC)[C@@H](C)C(=O)N[C@@H](Cc1ccccc1)c1nccs1)OC)N(C)C(=O)[C@@H](NC(=O)[C@H](CO)NC)C(C)C [Example 19] (H-[NMeS]V[Dil][Dolaproine]-Doe)	Karpas299 NHL	nM	0.5
CC[C@H](C)[C@@H]([C@@H](CC(=O)N1CCC[C@H]1[C@H](OC)[C@@H](C)C(=O)N[C@H](CO)Cc1ccccc1)OC)N(C)C(=O)[C@@H](NC(=O)[C@@H](N)CCO)C(C)C [Example 24] (H-[hSer]V[Dil][Dolaproine][Phe(ol)])	Karpas299 NHL	nM	43
CC[C@H](C)[C@@H]([C@@H](CC(=O)N1CCC[C@H]1[C@H](OC)[C@@H](C)C(=O)N[C@@H](Cc1ccccc1)c1nccs1)OC)N(C)C(=O)[C@@H](NC(=O)[C@H](CO)NC)[C@@H](C)CC [Example 20] (H-[NMeS]I[Dil][Dolaproine]-Doe)	Karpas299 NHL	nM	1
CC[C@H](C)[C@@H]([C@@H](CC(=O)N1CCC[C@H]1[C@H](OC)[C@@H](C)C(=O)N[C@@H](Cc1ccccc1)[C@@H](O)CO)OC)N(C)C(=O)[C@@H](NC(=O)[C@H](CO)N(C)C)C(C)C	Karpas299 NHL	nM	3
CC[C@H](C)[C@@H]([C@@H](CC(=O)N1CCC[C@H]1[C@H](OC)[C@@H](C)C(=O)N[C@H](CO)Cc1ccccc1)OC)N(C)C(=O)[C@@H](NC(=O)[C@@H]1C[C@@H](O)CN1)C(C)C [Example 49] (H-[Hyp]V[Dil][Dolaproine][Phe(ol)])	Karpas299 NHL	nM	35
